# test.target: recominbant human tryptase, beta, from lung (Homo sapiens, UniProt P20231)
# Construct: purchased Promega or Enzo Life Sciences G5631 or BML-SE418
# Sequence (P20231 31-275): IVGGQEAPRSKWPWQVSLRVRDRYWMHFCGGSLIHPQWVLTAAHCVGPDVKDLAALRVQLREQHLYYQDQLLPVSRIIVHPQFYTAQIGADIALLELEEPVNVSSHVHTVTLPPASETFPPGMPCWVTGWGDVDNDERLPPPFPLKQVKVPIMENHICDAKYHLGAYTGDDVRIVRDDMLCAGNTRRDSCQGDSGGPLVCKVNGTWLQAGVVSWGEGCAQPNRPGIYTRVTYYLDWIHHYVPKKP
# test.method.notes: Inhibition of tryptase activity by monomers and multimers (Boc-Gln-Ala-Arg-AMC fluorescence)
# Assay type: biochemical
# condition.summary: monomers against tryptase, Table 5; read-out: Monomer IC50 range
pIC50: −log10 of the molar value. Counter-ions that a name gives are not always drawn.
observation.type: pIC50

1) CC(O)(Cn1ccc2ccc(C(=O)N3CCC(c4cccc(CN)c4)CC3)cc21)C(=O)O (stereo not drawn) ... 6.00 to 10.00
2) NCc1cccc(C2CCN(C(=O)c3ccc(OCC(=O)N4C[C@@H](O)[C@@H](O)C4)cc3)CC2)c1 ... 5.00 to 6.00
3) NCc1cccc(C2CCN(C(=O)c3cccc(NC(=O)NCC(O)C(F)(F)F)c3)CC2)c1 (stereo not drawn) [CF17, hydrochloride] ... 6.00 to 10.00
4) NCc1cccc(C2CCN(C(=O)/C=C/c3cc(O)c(O)c(O)c3)CC2)c1 ... 6.00 to 10.00
5) NCc1cccc(C2CCN(C(=O)c3ccc(O)c(O)c3O)CC2)c1 ... 5.00 to 6.00
6) NCc1ccc(F)c(C2CCN(C(=O)c3cccc(-c4cccc(B(O)O)c4)c3)CC2)c1 [T35F] ... 6.00 to 10.00
7) NCc1cccc(C2CCN(C(=O)c3ccc(-c4ccc5c(c4)COB5O)cc3)CC2)c1 ... 5.00 to 6.00
8) NCc1cccc(C2CCN(C(=O)c3cc(O)c(O)c(Cl)c3)CC2)c1 ... 6.00 to 10.00
9) Cc1c(CC(=O)N2CCC(c3cccc(CN)c3)CC2)c(=O)oc2c(O)c(O)ccc12 ... 6.00 to 10.00
10) NCc1cccc(C2CCN(C(=O)c3ccc(O)c(C(N)=O)c3)CC2)c1 ... 6.00 to 10.00
11) CONC(=O)c1cc(C(=O)N2CCC(c3cccc(CN)c3)CC2)ccc1O ... 5.00 to 6.00
12) NCc1cccc(C2CCN(C(=O)c3cccc4cc(CO)c(O)cc34)CC2)c1 ... 5.00 to 6.00
13) NCc1cccc(C2CCN(C(=O)c3ccc4c(ccn4CC(O)(C(=O)O)c4ccccc4)c3)CC2)c1 (stereo not drawn) ... 6.00 to 10.00
14) CC(C)(C)OC(=O)NCc1cccc(C2CCN(C(=O)c3cccc(NC(=O)C(=O)C(C)(C)O)c3)CC2)c1 ... 6.00 to 10.00
15) NCc1cccc(C2CCN(C(=O)Cc3ccc(B(O)O)cc3F)CC2)c1 ... 5.00 to 6.00
16) NCc1cccc(C2CCN(C(=O)c3ccc(CO)c(O)c3)CC2)c1 ... 6.00 to 10.00
17) NCc1cccc(C2CCN(C(=O)/C=C/c3ccc(O)c(CO)c3)CC2)c1 ... 5.00 to 6.00
18) NCc1cccc(C2CCN(C(=O)/C=C/c3ccc(C4CC4)c(O)c3)CC2)c1 ... 6.00 to 10.00

---

# test.target: recominbant human tryptase, beta, from lung (Homo sapiens)
# Construct: purchased Promega or Enzo Life Sciences G5631 or BML-SE418
# test.method.notes: Inhibition of tryptase activity by monomers and multimers (Boc-Gln-Ala-Arg-AMC fluorescence)
# Format: biochemical
# condition.summary: monomers against tryptase, entry marked (1:10); read-out: IC50 range group of additional monomers marked (1:10)
Structures can show the parent of a compound that is named as a salt.
observation.type: IC50

1. NCc1cccc(C2CCN(C(=O)c3ccc4c(ccn4CC(O)(C(=O)O)c4ccccc4)c3)CC2)c1 (stereo not shown) ... 0.1 to 1000 nM
2. CC(O)(Cn1ccc2cc(C(=O)N3CCC(c4cccc(CN)c4)CC3)ccc21)C(=O)O (stereo not shown) ... 0.1 to 1000 nM
3. NCc1cccc(C2CCN(C(=O)c3cccc(OCC(O)(C(=O)O)C4CCCC4)c3)CC2)c1 (stereo not shown) ... 0.1 to 1000 nM
4. NCc1cccc(C2CCN(C(=O)c3ccc(C(=O)NOc4ccccc4)c(O)c3)CC2)c1 [T75AP] ... 0.1 to 1000 nM
5. C[C@]1(O)CN(c2cccc(C(=O)N3CCC(c4cccc(CN)c4)CC3)c2)C(=O)[C@H]1O [CMI9321, hydrochloride] ... 0.1 to 1000 nM
6. CONC(=O)c1ccc(CC(=O)N2CCC(c3cccc(CN)c3)CC2)cc1O ... 0.1 to 1000 nM
7. NCc1cccc(C2CCN(C(=O)c3cc4ccc(O)c(O)c4oc3=O)CC2)c1 ... 0.1 to 1000 nM

---

The reader will find reported IC50 values listed item by item below.
# test.target: recominbant human tryptase, beta, from lung (Homo sapiens)
# Construct: purchased Promega or Enzo Life Sciences G5631 or BML-SE418
# test.method.notes: Inhibition of tryptase activity by monomers and multimers (Boc-Gln-Ala-Arg-AMC fluorescence)
# Assay type: biochemical
# condition.summary: monomers against tryptase, Table 5; read-out: Monomer IC50 range
Counter-ions that a name gives are not always drawn.
observation.type: IC50

1) NCc1cccc(C2CCN(C(=O)c3cccc(OCC(=O)C4(O)CCC4)c3)CC2)c1 ... 0.1 to 1000 nM
2) NCc1ccc2c(c1)C1(CCN(C(=O)c3cc(O)c(O)c(Cl)c3)CC1)CO2 ... 0.1 to 1000 nM
3) NCc1cccc(C2CCN(C(=O)c3cc4c(Br)cccc4s3)CC2)c1 [T56A] ... 0.1 to 1000 nM
4) NCc1cccc(C2CCN(C(=O)c3cc4ccc(B(O)O)cc4[nH]3)CC2)c1 ... 1000 to 10000 nM
5) COc1cc(/C=C/C(=O)N2CCC(c3cccc(CN)c3)CC2)ccc1O [T24MON] ... 1000 to 10000 nM
6) NCc1ccc(C(=O)NCc2ccc(OCC(=O)N3CC(=O)[C@H](O)C3)cc2)cc1 [CF7, hydrochloride] ... 1000 to 10000 nM
7) NCc1cccc(C2CCN(C(=O)c3cccc(C(=O)N4C[C@@H](O)[C@H](O)C4)c3)CC2)c1 [T26diol cis] ... 1000 to 10000 nM
8) NCc1ccc(C(=O)NCc2ccc(OCC(=O)N3C[C@H](O)[C@@H](O)C3)cc2)cc1 [CF1, hydrochloride] ... 10000 to 65000 nM

---

# test.target: recominbant human tryptase, beta, from lung (Homo sapiens, UniProt P20231)
# Construct: purchased Promega or Enzo Life Sciences G5631 or BML-SE418
# test.method.notes: Inhibition of tryptase activity by monomers and multimers (Boc-Gln-Ala-Arg-AMC fluorescence)
# Format: biochemical
# condition.summary: monomers against tryptase; read-out: IC50 range group of additional monomers (boronic acid, benzooxaborole, ligands)
observation.type: IC50

1) Cc1c(CC(=O)N2CCC(c3cccc(CN)c3)CC2)c(=O)oc2cc(O)c(O)cc12 [T99] ... 1000 to 10000 nM
2) NCc1ccc2c(c1)C1(CCN(C(=O)c3ccc(C(=O)NOc4ccccc4)c(O)c3)CC1)CO2 [T75APSPIRO] ... 0.1 to 1000 nM
3) NCc1ccc2c(c1)C1(CCN(C(=O)c3ccc(O)c(O)c3)CC1)CO2 [T2SPIRO] ... 0.1 to 1000 nM
4) NCc1cccc(C2CCN(C(=O)c3cccc(NC(=O)C(O)C4(O)CCC4)c3)CC2)c1 (centres unmarked) [T21 (Diol)] ... 0.1 to 1000 nM
5) CN(Cc1ccccc1B(O)O)c1cccc2c(C(=O)N3CCC(c4cccc(CN)c4)CC3)cccc12 [T143] ... 1000 to 10000 nM
6) NCc1cccc(C2CCN(C(=O)c3cc4c(B(O)O)cccc4[nH]3)CC2)c1 [T32] ... 1000 to 10000 nM
7) NCc1cccc(C2CCN(C(=O)c3cccc(-c4ccc5c(c4)COB5O)c3)CC2)c1 [T36M] ... 0.1 to 1000 nM
8) NCc1cccc(C2CCN(C(=O)c3cccc4sc(B(O)O)cc34)CC2)c1 [T37] ... 1000 to 10000 nM
9) NCc1ccc2c(c1)C1(CCN(C(=O)c3ccc(O)c(C(=O)NOc4ccccc4)c3)CC1)CO2 [T92PHSPIRO] ... 1000 to 10000 nM
10) CN(Cc1ccccc1B(O)O)c1ccc(C(=O)N2CCC(c3cccc(CN)c3)CC2)cc1 [T147] ... 1000 to 10000 nM
11) NCc1ccc(F)c(C2CCN(C(=O)c3cccc(-c4cccc(B(O)O)c4)c3)CC2)c1 [T35F] ... 0.1 to 1000 nM
12) NCc1cccc(C2CCN(C(=O)c3cccc(NC(=O)C4CC5CCC4C(O)C5O)c3)CC2)c1 (racemic) [T141EXOSYN] ... 1000 to 10000 nM
13) N=C(N)c1ccc2c(c1)C1(CCN(C(=O)/C=C/c3ccc(B(O)O)cc3)CC1)CO2 [T33SPAM] ... 1000 to 10000 nM
14) NCc1cccc(C2CCN(C(=O)/C=C/c3ccc(O)c(C(N)=O)c3)CC2)c1 [T86] ... 1000 to 10000 nM
15) CC1(O)CN(c2cccc(C(=O)N3CCC(c4cccc(CN)c4)CC3)c2)CC1(C)O (centres unmarked) [T67] ... 0.1 to 1000 nM
16) NCc1cccc(C2CCN(C(=O)c3cc4c(B(O)O)cccc4s3)CC2)c1 [T56] ... 0.1 to 1000 nM
17) NCc1ccc2c(c1)C1(CCN(C(=O)c3cccc(-c4cc(F)cc(B(O)O)c4)c3)CC1)CO2 [T132SPIRO] ... 1000 to 10000 nM
18) NCc1cccc(C2CCN(C(=O)c3ccc(O)c(C(N)=O)c3)CC2)c1 [T66] ... 0.1 to 1000 nM
19) NCc1cccc(C2CCN(C(=O)/C=C/c3ccc(O)c(CO)c3)CC2)c1 [T40] ... 1000 to 10000 nM
20) NCc1cccc(C2CCN(C(=O)c3cccc(OCC(O)(C(=O)O)c4ccccc4)c3)CC2)c1 (centres unmarked) [T73] ... 0.1 to 1000 nM
21) COc1ccc(C(=O)N2CCC(c3cccc(CN)c3)CC2)c(O)c1O [T127] ... 1000 to 10000 nM
22) CC(C)(C)ONC(=O)c1ccc(C(=O)N2CCC3(CC2)COc2ccc(CN)cc23)cc1O [T75AOTBSPIRO] ... 0.1 to 1000 nM
23) NCc1cccc(C2CCN(C(=O)/C=C/c3cccc(O)c3CO)CC2)c1 [T42] ... 1000 to 10000 nM
24) NCc1ccc2c(c1)C1(CCN(C(=O)c3cccc(-c4cccc5c4COB5O)c3)CC1)CO2 [T112SPIRO] ... 1000 to 10000 nM
25) Cc1cc(C(=O)N2CCC(c3cccc(CN)c3)CC2)cc(-c2cccc(B(O)O)c2)c1C [T107] ... 1000 to 10000 nM
26) NCc1ccc(F)c(C2CCN(C(=O)c3cccc4ccc(B(O)O)cc34)CC2)c1 [T11F] ... 1000 to 10000 nM
27) NCc1cccc(C2CCN(C(=O)/C=C\c3ccc(O)c(O)c3)CC2)c1 [T24cis] ... 1000 to 10000 nM
28) CN(C)c1ccc(B(O)O)cc1-c1cccc(C(=O)N2CCC3(CC2)COc2ccc(CN)cc23)c1 [T155SPIRO] ... 1000 to 10000 nM
29) Cc1c(CC(=O)N2CCC(c3cccc(CN)c3)CC2)c(=O)oc2c(O)c(O)ccc12 [T101] ... 0.1 to 1000 nM
30) NCc1ccc(F)c(C2CCN(C(=O)c3cccc4cc(O)c(O)cc34)CC2)c1 [T27F] ... 1000 to 10000 nM
31) NCc1cccc(C2CCN(C(=O)c3cnc4c(B(O)O)cccc4c3)CC2)c1 [T156] ... 0.1 to 1000 nM
32) NCc1cccc(C2CCN(C(=O)c3cccc(NC(=O)C4CC5CCC4C(O)C5O)c3)CC2)c1 (racemic) [T141EXOANTI] ... 1000 to 10000 nM
33) NCc1ccc2c(c1)C1(CCN(C(=O)Cc3ccc(B(O)O)c(F)c3)CC1)CO2 [T54BASPIRO] ... 1000 to 10000 nM
34) NCc1cccc(C2CCN(C(=O)/C=C/c3ccc(CO)c(O)c3)CC2)c1 [T41] ... 0.1 to 1000 nM
35) CN(Cc1ccccc1B(O)O)c1cccc(C(=O)N2CCC(c3cccc(CN)c3)CC2)c1 [T146] ... 10000 to 65000 nM
